Biological target: T1, cynomolgus CD47 on CHO-K1 stable cell line (cynomolgus, UniProt A0A5F8AK49 19-323 (rhesus entry))
T1 construct: whole, on cells; also called cynomolgus CD47/CHO-K1
Assay: flow cytometry on cynomolgus CD47 CHO-K1 cells; plateau not reached, not accurate
pEC50: −log10 of the molar value.

- binder: "108VH5.M6 / 108VL1.M5 (antibody, human IgG4 S228P, kappa, V domains shown, Full-length IgG4 (S228P), kappa; also called VH5.M6 VL1.M5) VH: EVQLVQSGAEVKKPGASVKVSCKASGYTFTHHYMHWVRQAPGQGLEWMGMIDASDSETRLSQKFKDRVTMTRDTSTSTVYMELSSLRSEDTAVYYCARLGRYYFDYWGQGTLVTVSS VL: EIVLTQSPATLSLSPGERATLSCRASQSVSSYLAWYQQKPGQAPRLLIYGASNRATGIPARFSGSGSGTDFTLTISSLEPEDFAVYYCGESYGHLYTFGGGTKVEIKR"
  pEC50: 7.65
- binder: "108VH10.Mr / 108VL10.Me (antibody, V domains shown, 4D5-framework series; constant regions not restated for this series; also called VH10.Mr VL10.Me) VH: EVQLVESGGGLVQPGGSLRLSCAASGFTFSHHWIHWVRQAPGKGLEWVAMIDASDSETRLVDSVKGRFTISADTSKNTAYLQMNSLRAEDTAVYYCSRLGRYYFDYWGQGTLVTVSS VL: DIQMTQSPSSLSASVGDRVTITCRASQSISSYLNWYQQKPGKAPKLLIYGASSRYSGVPSRFSGSRSGTDFTLTISSLQPEDFATYYCGESYGHLYTFGQGTKVEIK"
  pEC50: 7.30
- binder: "108VH10.Mk / 108VL10.Me (antibody, V domains shown, 4D5-framework series; also called VH10.Mk VL10.Me) VH: EVQLVESGGGLVQPGGSLRLSCAASGFTFSHHWIHWVRQAPGKGLEWVAMIDASDSETRLSQKVKDRFTISADTSKNTAYLQMNSLRAEDTAVYYCSRLGRYYFDYWGQGTLVTVSS VL: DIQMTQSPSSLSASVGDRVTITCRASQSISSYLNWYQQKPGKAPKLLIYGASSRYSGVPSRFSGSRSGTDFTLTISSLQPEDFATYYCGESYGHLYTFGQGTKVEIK"
  pEC50: 8.19

Origin of the recorded values: patent US20260132197A1
